What combination Emax was measured for each of the following?
tested on: 786-0 (Kidney Carcinoma); test: combination Emax (second highest fraction inhibited in the dose matrix, 72 h); higher = more inhibition; extreme values may be limits of the assay
Number only, no unit.

Specify reported combination Emax for the molecule shown: NC1(C(=O)N[C@@H](CCO)c2ccc(Cl)cc2)CCN(c2ncnc3[nH]ccc23)CC1 [Capivasertib] + COc1nnc2ccc(N3CCC(c4ccc(OCCN5CCN(C)C(=O)[C@H]5C)cc4)CC3)nn12 [AZD5153] (first compound max 10 µM, 7x7, partner max 1 µM)
0.733

Please indicate combination Emax recorded for CC(=O)c1c(C)c2cnc(Nc3ccc(N4CCNCC4)cn3)nc2n(C2CCCC2)c1=O [Palbociclib] + Cc1c2c(nn1C)CSCc1cc(n(C)n1)CSc1cc(c3ccccc3c1)OCCCc1c(C(=O)O)n(C)c3c-2c(Cl)ccc13 [AZD5991] (first compound max 10 µM, 7x7, partner max 1 µM)
0.489

Indicate the recorded combination Emax value for this molecule: COc1cccc(OCCCN)c1-c1cc(Nc2cnc(C#N)cn2)n[nH]1 [Prexasertib] + O=C(c1cc(Cc2n[nH]c(=O)c3ccccc23)ccc1F)N1CCN(C(=O)C2CC2)CC1 [Olaparib] (first compound max 1 µM, 7x7, partner max 10 µM)
0.869

Assign combination Emax to the following record: CN(CCO)CC[C@H](CSc1ccccc1)Nc1ccc(S(=O)(=O)NC(=O)c2ccc(N3CCC([C@@H](O)c4ccccc4-c4ccc(Cl)cc4)CC3)cc2)cc1S(=O)(=O)C(F)(F)F [AZD4320] + CN(C)CCCOc1ccc(-c2ccc3ncc4c(c3c2)n(C2CCOCC2)c(=O)n4C)cn1 [AZD0156] (first compound max 1 µM, 7x7, partner max 1 µM)
0.0619

----------
Would you kindly list combination Emax for each of these molecules?
system: HSC-3 (Oral Cavity Carcinoma); assay: combination Emax (second highest fraction inhibited in the dose matrix, 72 h); higher = more inhibition; extreme values may be limits of the assay

Tell us which combination Emax value is on record for COc1nnc2ccc(N3CCC(c4ccc(OCCN5CCN(C)C(=O)[C@H]5C)cc4)CC3)nn12 [AZD5153] + CC1(C)CCC(CN2CCN(c3ccc(C(=O)NS(=O)(=O)c4ccc(NCC5CCOCC5)c([N+](=O)[O-])c4)c(Oc4cnc5[nH]ccc5c4)c3)CC2)=C(c2ccc(Cl)cc2)C1 [Venetoclax] (first compound max 1 µM, 7x7, partner max 1 µM)
0.69

Determine its reported combination Emax: Cc1c2c(nn1C)CSCc1cc(n(C)n1)CSc1cc(c3ccccc3c1)OCCCc1c(C(=O)O)n(C)c3c-2c(Cl)ccc13 [AZD5991] + CC1(C)CCC(CN2CCN(c3ccc(C(=O)NS(=O)(=O)c4ccc(NCC5CCOCC5)c([N+](=O)[O-])c4)c(Oc4cnc5[nH]ccc5c4)c3)CC2)=C(c2ccc(Cl)cc2)C1 [Venetoclax] (first compound max 1 µM, 7x7, partner max 1 µM)
0.466

Tell me its combination Emax given CCc1c2c(nc3ccc(O)cc13)-c1cc3c(c(=O)n1C2)COC(=O)[C@]3(O)CC [SN-38] + O=C(c1cc(Cc2n[nH]c(=O)c3ccccc23)ccc1F)N1CCN(C(=O)C2CC2)CC1 [Olaparib] (first compound max 0.3 µM, 7x7, partner max 10 µM) as the entry.
0.847

----------
system: HCC-44 (Lung Adenocarcinoma); assay: combination Emax (second highest fraction inhibited in the dose matrix, 72 h); higher = more inhibition; extreme values may be limits of the assay
reported.metric: combination Emax
API doc: respond with a numeric literal and nothing else, no unit.

Indicate its recorded combination Emax; the compound in question is COc1nnc2ccc(N3CCC(c4ccc(OCCN5CCN(C)C(=O)[C@H]5C)cc4)CC3)nn12 [AZD5153] + Cn1cnc2c(F)c(Nc3ccc(Br)cc3Cl)c(C(=O)NOCCO)cc21 [Selumetinib] (first compound max 1 µM, 7x7, partner max 10 µM)
0.728

----------
tested on: SNU-175 (Colorectal Carcinoma); experiment: Bliss excess, mean over the matrix (fraction); higher = more synergy
reported.metric: Bliss excess

For the molecule COc1nnc2ccc(N3CCC(c4ccc(OCCN5CCN(C)C(=O)[C@H]5C)cc4)CC3)nn12 [AZD5153] + C=CCn1c(=O)c2cnc(Nc3ccc(N4CCN(C)CC4)cc3)nc2n1-c1cccc(C(C)(C)O)n1 [AZD1775] (first compound max 1 µM, partner max 1 µM) , report Bliss excess.
-0.0647

// Input: NC1(C(=O)N[C@@H](CCO)c2ccc(Cl)cc2)CCN(c2ncnc3[nH]ccc23)CC1 [Capivasertib] + CC(=O)c1c(C)c2cnc(Nc3ccc(N4CCNCC4)cn3)nc2n(C2CCCC2)c1=O [Palbociclib] (first compound max 10 µM, 7x7, partner max 10 µM) . Output its Bliss excess only.
-0.0442

# return recorded Bliss excess for entry Cc1c2c(nn1C)CSCc1cc(n(C)n1)CSc1cc(c3ccccc3c1)OCCCc1c(C(=O)O)n(C)c3c-2c(Cl)ccc13 [AZD5991] + C1CN(CCC1(C(=O)N[C@@H](CCO)C2=CC=C(C=C2)Cl)N)C3=NC=NC4=C3C=CN4 [Capivasertib] (first compound max 1 µM, 7x7, partner max 3 µM)
0.0213

Give the reported value of Bliss excess for this record: C[C@@H](c1ccc2nccn2c1)n1nnc2ncc(-c3cnn(C)c3)nc21 [Savolitinib] + Cc1c2c(nn1C)CSCc1cc(n(C)n1)CSc1cc(c3ccccc3c1)OCCCc1c(C(=O)O)n(C)c3c-2c(Cl)ccc13 [AZD5991] (first compound max 1 µM, 7x7, partner max 1 µM)
-0.0713

----------
system: OV-90 (Ovarian Carcinoma); experiment: Bliss excess, mean over the matrix (fraction); higher = more synergy
reported.metric: Bliss excess

For COc1cccc(OCCCN)c1-c1cc(Nc2cnc(C#N)cn2)n[nH]1 [Prexasertib] + C[C@@H]1COCCN1C2=NC(=NC(=C2)C3(CC3)[S@](=N)(=O)C)C4=C5C=CNC5=NC=C4 [AZD6738] (first compound max 1 µM, 7x7, partner max 10 µM) , write its Bliss excess.
-0.0275

----------
tested on: BALL-1 (B-Lymphoblastic Leukemia); assay: Bliss excess, mean over the matrix (fraction); higher = more synergy
Could you please report measured Bliss excess for the items listed next?
Answer with the value's number alone.

Give a short answer stating reported Bliss excess for CN(C)CCCOc1ccc(-c2ccc3ncc4c(c3c2)n(C2CCOCC2)c(=O)n4C)cn1 [AZD0156] + C=CCn1c(=O)c2cnc(Nc3ccc(N4CCN(C)CC4)cc3)nc2n1-c1cccc(C(C)(C)O)n1 [AZD1775] (first compound max 1 µM, partner max 1 µM) .
0.0118

Consider the compound COc1cccc2c1C(=O)c1c(O)c3c(c(O)c1C2=O)C[C@@](O)(C(=O)CO)C[C@@H]3O[C@H]1C[C@H](N)[C@H](O)[C@H](C)O1 [Doxorubicin] + Cc1cc2ncnn2cc1Nc1ncc2c(n1)n(C1CCOCC1)c(=O)n2C [AZD7648] (first compound max 1 µM, 7x7, partner max 10 µM) . State its measured Bliss excess.
0.117

Quickly give me recorded Bliss excess for Cc1c2c(nn1C)CSCc1cc(n(C)n1)CSc1cc(c3ccccc3c1)OCCCc1c(C(=O)O)n(C)c3c-2c(Cl)ccc13 [AZD5991] + C1CN(CCC1(C(=O)N[C@@H](CCO)C2=CC=C(C=C2)Cl)N)C3=NC=NC4=C3C=CN4 [Capivasertib] (first compound max 1 µM, 7x7, partner max 3 µM)
0.0369

Provide one value: measured Bliss excess of Cc1c2c(nn1C)CSCc1cc(n(C)n1)CSc1cc(c3ccccc3c1)OCCCc1c(C(=O)O)n(C)c3c-2c(Cl)ccc13 [AZD5991] + C[C@@H](Nc1cc(F)cc(F)c1)c1cc(C(=O)N(C)C)cc2c(=O)cc(N3CCOCC3)oc12 [AZD8186] (first compound max 1 µM, 7x7, partner max 3 µM)
-0.0163

State its Bliss excess for this compound: CCN(CCO)CCCOc1ccc2c(Nc3cc(CC(=O)Nc4cccc(F)c4)[nH]n3)ncnc2c1 [AZD2811] + O=C(c1cc(Cc2n[nH]c(=O)c3ccccc23)ccc1F)N1CCN(C(=O)C2CC2)CC1 [Olaparib] (first compound max 1 µM, 7x7, partner max 10 µM)
0.147

Identify the reported Bliss excess for the following entry. C=CCn1c(=O)c2cnc(Nc3ccc(N4CCN(C)CC4)cc3)nc2n1-c1cccc(C(C)(C)O)n1 [AZD1775] + C1CN(CCC1(C(=O)N[C@@H](CCO)C2=CC=C(C=C2)Cl)N)C3=NC=NC4=C3C=CN4 [Capivasertib] (first compound max 3 µM, partner max 3 µM)
0.0591

# return recorded Bliss excess for entry NC1(C(=O)N[C@@H](CCO)c2ccc(Cl)cc2)CCN(c2ncnc3[nH]ccc23)CC1 [Capivasertib] + CC(C)n1c(=O)n(C)c2cnc3cc(F)c(-c4ccc(OCCCN5CCCCC5)nc4)cc3c21 [AZD1390] (first compound max 10 µM, 7x7, partner max 0.3 µM)
-0.0292

Answer with reported Bliss excess of COc1cccc(OCCCN)c1-c1cc(Nc2cnc(C#N)cn2)n[nH]1 [Prexasertib] + Cc1cc2ncnn2cc1Nc1ncc2c(n1)n(C1CCOCC1)c(=O)n2C [AZD7648] (first compound max 1 µM, 7x7, partner max 10 µM)
0.0202

Retrieve Bliss excess measured for Cn1cnc2c(F)c(Nc3ccc(Br)cc3Cl)c(C(=O)NOCCO)cc21 [Selumetinib] + C=CCn1c(=O)c2cnc(Nc3ccc(N4CCN(C)CC4)cc3)nc2n1-c1cccc(C(C)(C)O)n1 [AZD1775] (first compound max 10 µM, partner max 1 µM) and print it.
0.0018

Tell me Bliss excess reported for Cc1nc(Nc2ncc(C(=O)Nc3c(C)cccc3Cl)s2)cc(N2CCN(CCO)CC2)n1 [Dasatinib] + CC(=O)Nc1cccc(-n2c(=O)n(C3CC3)c(=O)c3c(Nc4ccc(I)cc4F)n(C)c(=O)c(C)c32)c1 [Trametinib] (first compound max 2 µM, 7x7, partner max 1 µM)
-0.0108

Entry CC(=O)Nc1cccc(-n2c(=O)n(C3CC3)c(=O)c3c(Nc4ccc(I)cc4F)n(C)c(=O)c(C)c32)c1 [Trametinib] + Cc1nc(-c2cn3c(n2)-c2ccc(-c4cnn(C(C)(C)C(N)=O)c4)cc2OCC3)n(C(C)C)n1 [Taselisib] (first compound max 1 µM, 7x7, partner max 10 µM) needs its Bliss excess filled in; supply it.
0.142

Return Bliss excess (reported value) for this compound: Cn1cnc2c(F)c(Nc3ccc(Br)cc3Cl)c(C(=O)NOCCO)cc21 [Selumetinib] + C[C@@H]1COCCN1C2=NC(=NC(=C2)C3(CC3)[S@](=N)(=O)C)C4=C5C=CNC5=NC=C4 [AZD6738] (first compound max 10 µM, 7x7, partner max 10 µM)
-0.0066

Give the reported Bliss excess for this compound. Cc1cc2ncnn2cc1Nc1ncc2c(n1)n(C1CCOCC1)c(=O)n2C [AZD7648] + CN(C)CCCOc1ccc(-c2ccc3ncc4c(c3c2)n(C2CCOCC2)c(=O)n4C)cn1 [AZD0156] (first compound max 10 µM, 7x7, partner max 1 µM)
-0.0108

Determine from records and report Bliss excess for CCc1c2c(nc3ccc(O)cc13)-c1cc3c(c(=O)n1C2)COC(=O)[C@]3(O)CC [SN-38] + CN(C)CCCOc1ccc(-c2ccc3ncc4c(c3c2)n(C2CCOCC2)c(=O)n4C)cn1 [AZD0156] (first compound max 0.3 µM, 7x7, partner max 1 µM)
0.0492

The measurements presented in this section are drawn from the supplement of paper PMC11061612.
